Entries and their kon
target: T1, 重组huPCSK9-his (人PCSK9, C端His-tag) (human, UniProt Q8NBP7 54-692); assay: SPR, Biacore 3000, antibody captured by anti-human Fc on CM5, huPCSK9 as analyte
T1 construct: Expressed in HEK293 cells; not shown: C-terminal His-tag
T1 sequence (Q8NBP7 other isoform, or with tags, fused parts or gaps): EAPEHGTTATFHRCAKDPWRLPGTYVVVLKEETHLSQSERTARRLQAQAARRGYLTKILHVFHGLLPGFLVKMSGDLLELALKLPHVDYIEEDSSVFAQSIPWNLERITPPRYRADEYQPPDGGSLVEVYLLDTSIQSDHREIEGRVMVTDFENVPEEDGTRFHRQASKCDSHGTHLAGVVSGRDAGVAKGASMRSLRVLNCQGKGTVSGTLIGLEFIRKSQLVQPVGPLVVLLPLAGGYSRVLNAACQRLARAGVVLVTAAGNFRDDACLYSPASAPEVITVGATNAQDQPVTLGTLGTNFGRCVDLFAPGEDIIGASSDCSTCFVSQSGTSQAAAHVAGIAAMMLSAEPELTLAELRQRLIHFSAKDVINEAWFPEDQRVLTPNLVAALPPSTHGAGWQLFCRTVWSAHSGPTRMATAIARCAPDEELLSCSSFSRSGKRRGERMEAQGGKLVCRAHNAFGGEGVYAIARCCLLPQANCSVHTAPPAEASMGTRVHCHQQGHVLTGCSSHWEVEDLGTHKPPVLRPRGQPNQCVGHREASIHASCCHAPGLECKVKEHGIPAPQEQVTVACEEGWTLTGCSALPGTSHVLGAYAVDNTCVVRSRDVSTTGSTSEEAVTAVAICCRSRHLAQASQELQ
Report the value in M⁻¹ s⁻¹ with no unit label.

H8A7-IgG4 (antibody, V domains shown) VH: QVQLVQSGAEVKKPGASVKVSCKASGYAIYNYGISWVRQAPGQGLEWMGWVSFYNGNTNYAQKLQGRGTMTTDPSTSTAYMELRSLRSDDTAVYYCARGYVMDFWGQGTTVTVSS VL: DIQMTQSPSSLSASVGDRVTITCRASQSINNWLDWYQQKPGKAPKLLIYAASTRPSGVPSRFSGSGSGTDFTLTISSLQPEDFATYYCQQDQDIPPTFGQGTKVEIKR = 746000

[in] Quick one: kon of H4H4-IgG4 (antibody, V domains shown) VH: QVQLVQSGAEVKKPGASVKVSCKASGYAIYNYGISWVRQAPGQGLEWMGWVSFYNGNTNYAQKLQGRGTMTTDPSTSTAYMELRSLRSDDTAVYYCARGYVMDIWGQGTTVTVSS VL: DIQMTQSPSSLSASVGDRVTITCRASQSINNWLDWYQQKPGKAPKLLIYAASTRPSGVPSRFSGSGSGTDFTLTISSLQPEDFATYYCQQDQDIPPTFGQGTKVEIKR ?
[out] 714000

[in] Please give the measured kon for this binder: H7B12-IgG4 (antibody, V domains shown) VH: QVQLVQSGAEVKKPGASVKVSCKASGYTLNNYGISWVRQAPGQGLEWMGWVSFYNGNTNYAQKLQGRGTMTTDPSTSTAYMELRSLRSDDTAVYYCARGYVMDIWGQGTTVTVSS VL: DIQMTQSPSSLSASVGDRVTITCRASQSINNWLDWYQQKPGKAPKLLIYAASTRPSGVPSRFSGSGSGTDFTLTISSLQPEDFATYYCQQDQDIPPTFGQGTKVEIKR
[out] 1.01e+06
